System: Calu-3
Assay: drug sensitivity score (DSS) for viability; higher = more toxic; extreme values may be limits of the assay
Conditions: 72 h
drug sensitivity score values, listed per item

Field: example entries. Status: answers known.
compound: Oc1nc(-c2ccc(C(F)(F)F)cc2)nc2c1CSCC2
drug sensitivity score: 2.7
--
compound: CC(C)Oc1cccc(-n2c(CCc3c[nH]c4ccc(Br)cc34)nc3ccccc3c2=O)c1
drug sensitivity score: 0
--
compound: CCCOc1ccc2[nH]c(NC(=O)OC)nc2c1
drug sensitivity score: 2.1
--
compound: CCN[C@H]1CN(CCCOC)S(=O)(=O)c2sc(S(N)(=O)=O)cc21 [brinzolamide]
drug sensitivity score: 0
--
compound: O=C(NCCN1CCOCC1)c1ccc(Cl)cc1 [moclobemide]
drug sensitivity score: 0

Q: What value of drug sensitivity score has been recorded for this entry: `OCCN1CCN(CCCN2c3ccccc3Sc3ccc(C(F)(F)F)cc32)CC1`
Result: 4.5

Q: Another: `COc1cc2ncn(-c3cc(OCc4ccccc4C(F)(F)F)c(C(N)=O)s3)c2cc1OC`
Result: 0.5

Q: Input `O=C(O)CCC(=O)Nc1ccc(S(=O)(=O)Nc2nccs2)cc1`
Result: 0

Q: Then this compound: CC(C(=O)O)c1cccc(Oc2ccccc2)c1 (centres undefined)
Result: 0

====

System: Caco-2
Assay: cell viability relative to DMSO; higher = less toxic
Settings: 72 h; 1000 nM
measuredParameter: cell viability (%)
// units = %; emit number, no label

Example results:
compound: CNC(=O)c1cccc2cc(Oc3ccnc4cc(OCC5(N)CC5)c(OC)cc34)ccc12 [lucitanib]
targetOfAssay: Caco-2
unitTag: %
observed: 97.6

compound: CCCCCCCC/C=C\CCCCCCCC(=O)NCc1ccc(O)c(OC)c1 [olvanil]
targetOfAssay: Caco-2
unitTag: %
observed: 94.3

compound: OC[C@@H](O)[C@@H](O)CO [erythritol]
targetOfAssay: Caco-2
unitTag: %
observed: 91

Alright, here's another compound for you.
Q: Write down the reported cell viability of CCOC(=O)c1ncn2c1CN(C)C(=O)c1cc(N=[N+]=[N-])ccc1-2 [Ro-15-4513] , test system: Caco-2.
Result: 99.6

====

The following molecules are listed with their measured cell viability values.
Test system: Caco-2
Experiment: cell viability relative to DMSO; higher = less toxic
Details: 72 h; 10000 nM
Give the quantity in %, number only.

molecule: CCNC(=O)CCC/C=C\C[C@@H]1[C@@H](/C=C/[C@@H](O)CCc2ccccc2)[C@H](O)C[C@@H]1O
measuredParameter: cell viability
unitTag: %
observed: 101

Q: Please report the recorded cell viability for `Cc1ccc(S(=O)(=O)Nc2nc3ccccc3nc2Nc2ccc3nsnc3c2)cc1` .
Result: 92.9

Q: For `Cc1c(Cn2c(C)nc3c(C(=O)O)cc(N4CCOCC4)cc32)cccc1C(F)(F)F` then?
Result: 84.9

Q: Again, but for CCCCCCCCCCC(O)C1C=CC2C(=O)N(c3ccccc3)C(=O)C2N1Nc1ccc([N+](=O)[O-])cc1 (configuration not stated)
Result: 92

Q: // same read-out, input: `CN1CCc2c(c3ccccc3n2Cc2ccc(C(=O)NO)cc2)C1`
Result: 88.9

Q: Try this molecule too: `C=C(C)[C@@H]1CC[C@]2(C(=O)O)CC[C@]3(C)[C@H](CC[C@@H]4[C@@]5(C)CC[C@H](OC(=O)CC(C)(C)C(=O)O)C(C)(C)[C@@H]5CC[C@]43C)[C@@H]12`
Result: 94.9

Q: What about `COc1cc(C(=O)N2CCC(N3CCN(C)CC3)CC2)ccc1Nc1ncc2c(n1)N(C)c1ccccc1C(=O)N2C` ?
Result: 67.8
